Test system: HSkMC
Assay: cytotoxicity call (relative viability < 0.9)
Details: 10 µM
Among all 39,000 compounds or so, about 1,500 (3.8%) were called active. Only a selection was taken, and actives are over-represented in it overall.
quantity measured: cytotoxicity call

1) O=C(C[C@H]1CC[C@H](NS(=O)(=O)c2ccccc2)[C@H](CO)O1)NCc1ccncn1; inactive
2) N#CC(c1ccccc1)(c1ccccc1)c1ccccc1Cl; inactive
3) C[C@@H]1CN([C@@H](C)CO)C(=O)c2cccc(NC(=O)C3CC3)c2O[C@@H]1CN(C)S(=O)(=O)c1ccc(F)cc1; inactive
4) C[C@@H]1CCCCO[C@H](CN(C)C(=O)c2ccccc2)[C@@H](C)CN([C@@H](C)CO)C(=O)c2cc(NS(=O)(=O)c3cccs3)ccc2O1; inactive

----------
Test system: HSkMC
Assay: cytotoxicity call (relative viability < 0.9)
Settings: 10 µM
Among all 39,000 compounds or so, about 1,500 (3.8%) were called active. Only a selection was taken, and actives are over-represented in it overall.
Lab note: assign the record to one of TRUE for active, FALSE for inactive

Known results for compounds:
1) CCCCCCCCNC[C@@H](O)[C@H](O)[C@@H](O)[C@@H](O)CO; FALSE
2) Cl.Clc1ccc2c(c1)CCc1cccnc1C2=C1CCNCC1; FALSE
3) CC(C)(C)S(=O)N1Cc2cc(C(=O)N[C@@H]3CCN(Cc4ccccc4)C3)nc(-c3cccc(C#CCC4CCCC4)c3)c2[C@H]1CCO (stereo not given in full); TRUE
4) CCCCCCCCNC(C)C(O)c1ccc(SC(C)C)cc1 (stereo not given); TRUE

Next up:
Query: What outcome does the record of this test show for CC(NCCc1ccc(O)cc1)C(O)c1ccc(O)cc1.Cl (stereo not given) ?
Result: FALSE

----------
Test system: HSkMC
Test: cytotoxicity call (relative viability < 0.9)
Conditions: 10 µM
Hit rate of the full screen: of about 39,000 compounds, about 1,500 (3.8%) were called active. Many of the other results were omitted from the sample, so actives are more common in it than they were.
Lab note: assign the record to one of Yes = active, No = inactive

1. Cc1ccc(-c2ccc3c(c2)O[C@@H](CN(C)C(=O)NC(C)C)[C@@H](C)CN([C@H](C)CO)S3(=O)=O)cc1; No
2. C[C@H](CO)N1C[C@H](C)[C@H](CN(C)C(=O)Nc2ccccc2)Oc2c(NC(=O)C3CCOCC3)cccc2C1=O; No
3. C[C@H](CO)N1C[C@H](C)[C@H](CN(C)Cc2ccc3c(c2)OCO3)Oc2ccc(NC(=O)Nc3ccc(C(F)(F)F)cc3)cc2C1=O; Yes

Next up:
Query: What outcome does the record of this test show for `Cc1noc(C)c1NC(=O)Nc1ccc2c(c1)C(=O)N([C@@H](C)CO)C[C@H](C)[C@@H](CN(C)Cc1ccc(Cl)c(Cl)c1)OCCCC[C@@H](C)O2` ?
Result: No

----------
Tested on: HSkMC (human skeletal muscle cells)
Test: cytotoxicity call (relative viability < 0.9)
Details: 10 µM
Screen size: about 39,000 compounds; about 1,500 (3.8%) were called active. The full list was thinned out, with actives kept by preference.
Lab note: assign the record to one of 1 (active), -1 (inactive)

Query: What outcome does the record of this test show for `Cc1ccc(S(=O)(=O)Nc2ccc3c(c2)C(=O)N([C@H](C)CO)C[C@H](C)[C@@H](CN(C)C(=O)CCC(F)(F)F)OCCCC[C@H](C)O3)cc1` ?
Result: -1
